Each recorded value in this set is attributed to PubChem BioAssay.

Biological target: NADPH oxidase 5 (Homo sapiens) (UniProt Q96PH1)
Sequence (Q96PH1 whole entry, looked up): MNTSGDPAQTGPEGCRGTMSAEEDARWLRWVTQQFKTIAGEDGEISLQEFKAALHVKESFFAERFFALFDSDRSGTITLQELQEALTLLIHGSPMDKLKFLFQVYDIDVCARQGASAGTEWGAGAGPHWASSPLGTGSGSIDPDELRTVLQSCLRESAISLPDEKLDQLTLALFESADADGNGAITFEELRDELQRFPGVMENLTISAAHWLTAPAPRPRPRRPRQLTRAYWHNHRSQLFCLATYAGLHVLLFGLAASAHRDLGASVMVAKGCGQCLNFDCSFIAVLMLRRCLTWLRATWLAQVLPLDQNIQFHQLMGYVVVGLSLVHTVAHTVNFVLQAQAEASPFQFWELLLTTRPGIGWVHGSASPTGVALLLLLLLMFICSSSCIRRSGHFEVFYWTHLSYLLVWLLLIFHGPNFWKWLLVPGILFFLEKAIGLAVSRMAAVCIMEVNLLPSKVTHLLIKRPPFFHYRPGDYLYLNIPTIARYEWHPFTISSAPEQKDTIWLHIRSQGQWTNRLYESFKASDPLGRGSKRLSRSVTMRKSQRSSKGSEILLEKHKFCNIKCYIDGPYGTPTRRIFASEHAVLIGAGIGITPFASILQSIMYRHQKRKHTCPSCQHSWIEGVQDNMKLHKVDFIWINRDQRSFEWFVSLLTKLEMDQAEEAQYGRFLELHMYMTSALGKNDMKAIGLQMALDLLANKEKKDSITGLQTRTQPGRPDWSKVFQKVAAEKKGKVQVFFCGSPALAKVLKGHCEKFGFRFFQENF
Test: NOX5-dependent H2O2 signal modulators, primary screen, NOX inhibitor project, cell-based, HEK293-NOX5, Amplex Red fluorescence (AID 1161)
Details: HEK293-NOX5, ionomycin, 45 min, higher = more signal
Each entry falls in a class defined on z-score; the bands are low-valued: < -1; mid-valued: ≥ -1 and < 1; high-valued: ≥ 1

Record excerpt, results attached:
O=C(CS)NCCCCCCNC(=O)[C@@H]1C[C@@H]2C(=O)N3CCC[C@H]3C(=O)N2[C@@H]1c1ccc(O)cc1	mid-valued
C[N+](C)(C)CCCCCCNC(=O)[C@H]1C[C@H]2C(=O)N3CCC[C@H]3C(=O)N2[C@H]1c1ccc(O)cc1	low-valued
O=C1C2C=CC(C(O)c3ccc(F)cc3)N(Nc3ccccc3)C2C(=O)N1c1ccccc1 (configuration not stated)	low-valued
[N-]=[N+]=NCc1ccccc1C[C@]1(C(=O)O)N=C(c2ccc(OCCCO)cc2)O[C@H]1c1ccccc1CN=[N+]=[N-]	high-valued
C=C(CCCC)C(=O)CC[C@H](OC(=O)c1cccnc1)c1cccc(OCCO)c1	low-valued

query: Lab log: CCCCC=C[C@@H](NC(=O)c1cccs1)c1ccccc1 — assign z-score category
result: high-valued

query: Lab log: COc1ccc(C(O)C2C=CC3C(=O)N(C)C(=O)C3N2Nc2ccccc2)cc1OCc1ccccc1 (configuration not stated) — assign z-score category
result: low-valued

query: Lab log: C=CC[C@@H](OC(=O)Nc1ccc(OC)cc1)c1ccc(O)c2ccccc12 — assign z-score category
result: mid-valued

query: Lab log: O=C1C2C=CC(C(O)c3cccs3)N(Nc3ccccc3F)C2C(=O)N1c1ccccc1 (configuration not stated) — assign z-score category
result: low-valued

query: Lab log: COCCOC(=O)N1C(=O)[C@@]2(c3cc(C#CC4=CCCCC4)ccc31)[C@H](C(=O)NC[C@H](O)c1ccccc1)[C@H]1C(=O)O[C@H](c3ccccc3)[C@H](c3ccccc3)N1[C@@H]2c1ccc(O)cc1 — assign z-score category
result: high-valued

query: Lab log: O=C1O[C@H](c2ccccc2)[C@H](c2ccccc2)N2[C@H]1[C@@H](C(=O)O)[C@]1(C(=O)Nc3ccc(C#CC4(O)CCCCCC4)cc31)[C@H]2c1ccc(OCCO)cc1 — assign z-score category
result: high-valued

query: Lab log: C[C@]1(C(=O)NCc2ccccc2)c2ccccc2C(=O)N(Cc2ccc(OC(F)(F)F)cc2)[C@H]1c1ccc(CO)cc1 — assign z-score category
result: mid-valued

query: Lab log: CC(C)C(O)C1C=CC2C(=O)N(c3ccccc3)C(=O)C2N1Nc1ccc(C#N)cc1 (configuration not stated) — assign z-score category
result: low-valued

query: Lab log: COCCOC(=O)N1C(=O)[C@@]2(c3ccccc31)[C@H](c1ccc(O)cc1)N1[C@H](c3ccccc3)[C@H](c3ccccc3)OC(=O)[C@H]1[C@@H]2C(=O)N1CCc2cc(OC)c(OC)cc2C1 — assign z-score category
result: high-valued

query: Lab log: CC(C)(C)N1CC=CC23O[C@@H]4C=CCOC(=O)[C@@H]4[C@H]2C(=O)N(CCCCCO)[C@@H]3C1=O (some centres not stated) — assign z-score category
result: high-valued

query: Lab log: CN1C=C(C(=O)OCCS(C)(=O)=O)C(C(=O)OCCS(C)(=O)=O)=CC(CCCO)=CC1C1CC1 (configuration not stated) — assign z-score category
result: low-valued

query: Lab log: O=C/C=C/c1ccc2c(c1)OCO2 — assign z-score category
result: mid-valued
